experiment: solvent given as SMILES; conditions: in C1CCOC1
In this section, each of the compounds is paired with its reported absorption maximum.
Write the answer as a number in nm, unit excluded.

| compound | obs value |
| --- | --- |
| CCCCC1=Cc2c3ccc4cccc5ccc(c6cc(-c7ccc(N(c8ccccc8)c8ccccc8)cc7)n(c26)P1(=O)c1ccccc1)c3c45 (configuration not stated) | 432 |
| CCCCCCOc1ccc2c(c1)C1=[N+]3C2=Cc2c4ccc(OCCCCCC)cc4c4n2[B-]3(Oc2ccccc21)Oc1ccccc1-4 (configuration not stated) | 748 |
| c1ccc2c(c1)-c1ccccc1C21c2ccccc2-c2oc3c(c21)C1(c2ccccc2-c2ccccc21)c1ccccc1-3 | 367 |
| CC(C)(C)c1ccc2c(c1)c1cc(C(C)(C)C)ccc1n2-c1ccc(-c2nc(-c3ccc(-n4c5ccc(C(C)(C)C)cc5c5cc(C(C)(C)C)ccc54)cc3)nc(-c3ccc(P(=O)(c4ccccc4)c4ccccc4)cc3)n2)cc1 | 386.93 |
| CC(C)(C)c1ccc(-c2c(-c3ccc(-n4c5ccccc5c5ccccc54)cc3)cc(-c3ccc(-n4c5ccccc5c5ccccc54)cc3)c(-c3ccc(C(C)(C)C)cc3)c2-c2ccc(C(C)(C)C)cc2)cc1 | 341 |

**Q:** State the recorded absorption maximum for this entry: Cc1ccc(C2=C3C=c4c(oc5ccccc45)=[N+]3[B-](F)(F)n3c2cc2c4ccccc4oc23)cc1
**A:** 581.5

**Q:** State the recorded absorption maximum for this entry: CCCCCCCCCCCCNc1cccc2[n+]1[B-](F)(F)n1c(c3cccc4cccc1c43)=N2
**A:** 498

**Q:** State the recorded absorption maximum for this entry: O=C(N/N=C/c1ccccc1O)c1ccccc1
**A:** 334

**Q:** State the recorded absorption maximum for this entry: CC(C)(C)c1ccc2c(c1)sc1[n+]2[B-](F)(F)n2c(c3cccc4c(Br)ccc2c43)=C1C#N
**A:** 539

**Q:** State the recorded absorption maximum for this entry: c1ccc(-c2ccc(-c3ccccc3)cc2)cc1
**A:** 281

**Q:** State the recorded absorption maximum for this entry: CC1=N/C(=C\c2cccc(N(C)C)c2)C(=O)N1C
**A:** 354

**Q:** State the recorded absorption maximum for this entry: O=C(N/N=C/c1ccccc1O)c1ccc([N+](=O)[O-])cc1
**A:** 338

**Q:** State the recorded absorption maximum for this entry: CC1(C)Cc2c(c3ccccc3c3nc4ccccc4nc23)O1
**A:** 459.98

**Q:** State the recorded absorption maximum for this entry: CCC1=C(C)C2=C(C)c3c(C)c(CC)c(C)n3[B-](F)(F)[N+]2=C1C
**A:** 518.4

----------
In this section, each of the molecules is paired with its reported absorption maximum.
test: solvent given as SMILES; details: in CN(C)C=O
Remember to follow the number with its unit.

Consider the following illustrative entries.
| molecule | absorption maximum |
| --- | --- |
| Cc1ccc(C2=C3C=c4c(oc5ccccc45)=[N+]3[B-](F)(F)n3c2cc2c4ccccc4oc23)cc1 | 581.5 nm |
| CCC1=C(C)C2=C(c3c4ccccc4c(C)c4ccccc34)c3c(C)c(CC)c(C)n3[B-](F)(F)[N+]2=C1C | 530 nm |
| CCC1=C(C)C2=C(C)c3c(C)c(CC)c(C)n3[B-](F)(F)[N+]2=C1C | 517.1 nm |
| CCN(CC)c1ccc(-c2nc(Oc3ccc(-c4nc5ccccc5[nH]4)cc3)nc(Oc3ccc(-c4nc5ccccc5[nH]4)cc3)n2)cc1 | 376 nm |
| CCn1c2ccccc2c2cc(-c3cc(-c4ccc5c(c4)c4ccccc4n5CC)nc(OC)n3)ccc21 | 369 nm |
| C(=C\c1ccc(-c2nnc(-c3ccccc3)o2)cc1)/c1ccc(-c2nnc(-c3ccccc3)o2)cc1 | 347 nm |
| N#C/C(=C/Nc1ccc(C#N)cc1)c1nc(-c2ccccc2)cs1 | 376 nm |

Attention now turns to another entry.
**Q:** State the recorded absorption maximum for this entry: COC(=O)C(Cc1ccc2oc(-c3ccc4c(c3)c3ccccc3n4-c3ccccc3)nc2c1)NC(=O)OC(C)(C)C (stereo not drawn)
**A:** 327.9 nm

----------
experiment: solvent given as SMILES; conditions: in ClC(Cl)Cl
In this section, each of the compounds is paired with its reported absorption maximum.
Write the answer as a number in nm, unit excluded.

Consider the following illustrative entries.
| compound smiles | unit annotation | obs value |
| --- | --- | --- |
| COc1ccccc1-c1cc2c(o1)=CC1=Cc3cc4oc(-c5ccccc5OC)cc4n3[B-](F)(F)[N+]=21 | nm | 671 |
| CCC1(CC)c2cc(-c3ccc(N(c4ccc(-c5ccc6c(c5)C(CC)(CC)c5cc(N7c8ccccc8C(C)(C)c8ccccc87)ccc5-6)cc4)c4ccc(-c5ccc6c(c5)C(CC)(CC)c5cc(N7c8ccccc8C(C)(C)c8ccccc87)ccc5-6)cc4)cc3)ccc2-c2ccc(N3c4ccccc4C(C)(C)c4ccccc43)cc21 | nm | 366 |
| CCCCCCCCCCOc1ccc2c3c(oc2c1)C1=C2C(=O)N4C=Cc5c(oc6cc(OCCCCCCCCCC)ccc56)C4=C2C(=O)N1C=C3 | nm | 648 |

**Q:** State the recorded absorption maximum for this entry: C/C=C/C=C/C1=NC(=C\c2ccc(O)cc2)/C(=O)N1C
**A:** 425

----------
In this section, each of the compounds is paired with its reported absorption maximum.
assay: solvent given as SMILES; settings: in CS(C)=O
Write the answer as a number in nm, unit excluded.

Consider the following illustrative entries.
| compound smiles | absorption maximum, nm |
| --- | --- |
| CC(C)[Si]1(C(C)C)c2cc(C=O)ccc2-c2ccc(N(C)C)cc21 | 400 |
| CCC1=C(C)C(=O)n2c1cc1c(C)c(CCC(=O)O)c(C)n1c2=O | 426 |
| COc1cc(OC)cc(-c2ccc(-c3ccc(C#N)s3)s2)c1 | 372 |

**Q:** State the recorded absorption maximum for this entry: Cc1ccc(-n2c3ccccc3c3cc(C=C(C#N)C#N)ccc32)cc1
**A:** 407

**Q:** State the recorded absorption maximum for this entry: [C-]#[N+]c1ccc(-c2ccc(N(C)C)cc2)cc1
**A:** 340

**Q:** State the recorded absorption maximum for this entry: O=c1c2ccccc2[nH]c2ccccc12
**A:** 398

----------
experiment: solvent given as SMILES; conditions: in CC(C)=O
result type: absorption maximum (nm)
Write the answer as a number in nm, unit excluded.

| compound | absorption maximum / nm |
| --- | --- |
| O=c1cc(COc2ccc(I)cc2)c2c(ccc3ccccc32)o1 | 349 |
| COC(=O)C(Cc1ccc2oc(-c3ccc4c(c3)c3ccccc3n4-c3ccccc3)nc2c1)NC(=O)OC(C)(C)C (configuration not stated) | 325.9 |
| CCC1=C(C)C2=C(C)c3c(C)c(CC)c(C)n3[B-](F)(F)[N+]2=C1C | 516 |
| CCN(CC)c1cccc2c1ccc1c(=O)oc(-c3ccc(C(F)(F)F)cc3)cc12 | 390 |
| CCn1c2ccccc2c2cc(/C=C/c3cccc(/C=C/c4ccc5c(c4)c4ccccc4n5CC)[n+]3CCCS(=O)(=O)[O-])ccc21 | 458 |
| CCCCCCCCC1(CCCCCCCC)c2cc(-c3ccc(C=C4C(=O)c5ccccc5C4=O)cc3)ccc2-c2ccc(-c3ccc(C=C4C(=O)c5ccccc5C4=O)cc3)cc21 | 433 |

Attention now turns to another entry.
**Q:** State the recorded absorption maximum for this entry: CCC1(CC)c2ccccc2-c2c1c1c(c3c2C(CC)(CC)c2cc(B(c4c(C)cc(C)cc4C)c4c(C)cc(C)cc4C)ccc2-3)C(CC)(CC)c2cc(B(c3c(C)cc(C)cc3C)c3c(C)cc(C)cc3C)ccc2-1
**A:** 360

----------
experiment: solvent given as SMILES; details: in ClCCl
result type: absorption maximum (nm)
Write the answer as a number in nm, unit excluded.

Consider the following illustrative entries.
| compound | absorption maximum, nm |
| --- | --- |
| C(=C\c1ccc(/C=C/c2ccc(N(c3ccccc3)c3ccccc3)cc2)c2nsnc12)/c1ccc(N(c2ccccc2)c2ccccc2)cc1 | 512 |
| Nc1ccc(C#Cc2ccc3ccc4ccc(C#Cc5ccc(N)cc5)c5ccc2c3c45)cc1 | 417 |
| CC(C)(C)c1ccc(-c2cc(-c3ccc(-c4cc(-c5ccc(C(C)(C)C)cc5)c(C(=O)NCc5cccs5)s4)s3)sc2C(=O)NCc2cccs2)cc1 | 394 |

**Q:** State the recorded absorption maximum for this entry: N#Cc1ccc(-n2cccc2)cc1
**A:** 287

**Q:** State the recorded absorption maximum for this entry: CC(C)(C)c1ccc2c(c1)sc1[n+]2[B-](F)(F)n2c(c3cccc4c(Br)ccc2c43)=C1C#N
**A:** 538

**Q:** State the recorded absorption maximum for this entry: Cc1ccc(C#Cc2ccc3ccc4cccc5ccc2c3c45)cc1
**A:** 365

**Q:** State the recorded absorption maximum for this entry: FC(F)(F)c1cc2n(n1)[B-]1(c3ccccc3-c3ccccc31)[n+]1ccc3ccccc3c1-2
**A:** 373

**Q:** State the recorded absorption maximum for this entry: Cn1c(=O)c(/N=N/c2cc(S(=O)(=O)O)ccc2C(=O)O)c(O)c2ccccc21
**A:** 420

**Q:** State the recorded absorption maximum for this entry: F[B-]1(F)n2cccc2C=C2C=CC=[N+]21
**A:** 503

**Q:** State the recorded absorption maximum for this entry: COc1c2ccccc2c(OC)c2c(C#C[Si](C(C)C)(C(C)C)C(C)C)c3cc4ccccc4cc3c(C#C[Si](C(C)C)(C(C)C)C(C)C)c12
**A:** 686

**Q:** State the recorded absorption maximum for this entry: c1ccc(-c2csc(-c3ccncc3)n2)cc1
**A:** 376

**Q:** State the recorded absorption maximum for this entry: Cc1cc(C)c(C2=C3C=c4c(c5ccc(C(C)(C)C)cc5c5cc(C(C)(C)C)ccc45)=[N+]3[B-](F)(F)n3c2cc2c4ccc(C(C)(C)C)cc4c4cc(C(C)(C)C)ccc4c23)c(C)c1
**A:** 693

**Q:** State the recorded absorption maximum for this entry: c1ccc(Cc2c3ccc(=[N+]4CCCCC4)cc-3oc3cc(N4CCCCC4)ccc23)cc1
**A:** 566

**Q:** State the recorded absorption maximum for this entry: Clc1nnc(O/N=C/c2ccc(N(c3ccccc3)c3ccccc3)cc2)nn1
**A:** 518

**Q:** State the recorded absorption maximum for this entry: COc1ccc(-c2cc(-c3ccc(OC)cc3)c3c(N)nc(N4CCCC4)c(C#N)c3n2)cc1
**A:** 418

**Q:** State the recorded absorption maximum for this entry: CCCCCCCCCCCCC(CCCCCCCCCC)Cn1c2cc(/C=C/C=C(C#N)C#N)c3cccc4c5cccc6c(/C=C/C=C(C#N)C#N)cc1c(c65)c2c34 (configuration not stated)
**A:** 611

**Q:** State the recorded absorption maximum for this entry: c1cc(-c2c3ccccc3c(-c3ccc4ccccc4c3)c3ccccc23)cc(-n2c3ccccc3c3ccccc32)c1
**A:** 376

**Q:** State the recorded absorption maximum for this entry: C(S/C=C/c1ccc(-c2ccc(/C=C/SC=C3CCCCCC3)cc2)cc1)=C1CCCCCC1
**A:** 353
